# Tested on: SNB-19 CNS
# assay-notes: NCI-60 one-dose screen, 48 h (100 = growth as untreated, 0 = no growth, -100 = all killed)
# cond: 10 µM unless noted
This is part of a sample that, as a whole, favours compounds with a hit. Of some 83,000 tested, about 20% had one in any assay.
A collection of compounds and their measured growth
metric-name: growth (%)

{"compound": "COc1ccc(C(=O)Cn2c(C(=O)c3ccc(Cl)cc3)nc3ccccc32)cc1", "reading-unit": "%", "numeric-value": 74}
{"compound": "COc1ccc2nc(Cl)c(/C=C3\\CC(c4ccccc4)=NN(c4ccccc4)C3=O)cc2c1", "reading-unit": "%", "numeric-value": 20.3}
{"compound": "COc1ccc(C2=CN3CC=CC3CC2=O)cc1 (centres undefined)", "reading-unit": "%", "numeric-value": 105}
{"compound": "CCN1C(=O)N(CC)C2C1N=C(SCc1ccc(Cl)cc1)N2/N=C/C=C/c1ccccc1OC (centres undefined)", "reading-unit": "%", "numeric-value": 79.3}
{"compound": "N[C@H]1CCC[C@@H]1NCCCCN1C(=O)c2cccc3cc([N+](=O)[O-])cc(c23)C1=O", "reading-unit": "%", "numeric-value": 46.2}
{"compound": "CC1(C)CC(=O)c2c(nn(-c3ccc(Br)cc3)c2-c2cn(-c3ccccc3)nc2-c2cccnc2)C1", "reading-unit": "%", "numeric-value": 92.5}
{"compound": "O=C(CSc1nnc(-c2cc(-c3ccccc3)nc3ccccc23)n1-c1ccccc1)Nc1ccc(C(=O)/C=C/c2ccc(Cl)cc2)cc1", "reading-unit": "%", "numeric-value": 101}
{"compound": "C=C1CC[C@@H]2[C@](C)(COC(C)=O)[C@H](OC(C)=O)CC[C@@]2(C)[C@@H]1CC(Nc1ccc(S(=O)(=O)NC(C)=O)cc1)C1=CCOC1=O (some centres undefined)", "reading-unit": "%", "numeric-value": 23}
{"compound": "c1ccc(CCNc2c3ccccc3nc3ccccc23)cc1", "reading-unit": "%", "numeric-value": 39.5}
{"compound": "CC(C)(C)c1cc(Cl)c(O)c(CNCCO)c1", "reading-unit": "%", "numeric-value": 113}
{"compound": "CN1CCN(Cc2ccc(NC(=O)c3cncc(C#Cc4cnc(N)c5ccc(F)cc45)c3)cc2C(F)(F)F)CC1", "reading-unit": "%", "numeric-value": 29.4}
{"compound": "O=c1cc(-c2ccccc2)[nH]c2ncc(-c3ccc(F)cc3)n12", "reading-unit": "%", "numeric-value": 68.3}
{"compound": "O=C(/C=C/c1ccccc1)c1ccc(Nc2nc(Nc3ccc(F)cc3)nc(Nc3ccc(Cl)cc3)n2)cc1", "reading-unit": "%", "numeric-value": 101}
{"compound": "COc1ccc(C2CC(c3cc(OC)c(OC)c(OC)c3)=NO2)cc1OCCCCOc1cc2c(cc1OC)C(=O)N1CCC[C@H]1C=N2 (some centres undefined)", "reading-unit": "%", "numeric-value": 16.5}
{"compound": "Cc1ccc(CNc2c3ccccc3nc3ccccc23)cc1", "reading-unit": "%", "numeric-value": 29.7}
{"compound": "COC(=O)c1ccc(NC(=O)Nc2ccc(C(=O)OC)cc2)cc1", "reading-unit": "%", "numeric-value": 97.2}
{"compound": "O=C(NC1CC(F)C1)c1cc2cccnc2n1-c1ccc(Cl)c(Cl)c1 (centres undefined)", "reading-unit": "%", "numeric-value": 95.2}
{"compound": "CCOC(=O)C1=C(C)C(Cl)=N/C1=C\\c1[nH]c(Cl)c(C)c1C(=O)OCC", "reading-unit": "%", "numeric-value": 101}
{"compound": "COc1ccc(Nc2ncccc2/C=C/C(=O)c2cc(OC)c(OC)c(OC)c2)cc1", "reading-unit": "%", "numeric-value": 33.4}

====

In this section, each of the compounds is paired with its reported growth.
# Tested on: HS 578T breast
# assay-notes: NCI-60 one-dose screen, 48 h (100 = growth as untreated, 0 = no growth, -100 = all killed)
# cond: 10 µM unless noted
The panel holds about 83,000 compounds, 20% with a hit somewhere; the sample as a whole holds those more often.
metric-name: growth (%)

{"compound": "N#C/C(=C\\c1cn(Cc2ccccc2)c2ccccc12)C(=O)Nc1ncc(Cc2ccccc2Cl)s1", "reading-unit": "%", "numeric-value": 21.7}
{"compound": "O=C(CCSc1nnc2n(Cc3ccccc3)c(=O)c3c4c(sc3n12)CCCC4)N1CCN(c2ccccc2)CC1", "reading-unit": "%", "numeric-value": 108}
{"compound": "Cc1ccc(C(=O)Nc2cccc(C#Cc3cccc4[nH]nc(N)c34)c2)cc1C(F)(F)F", "reading-unit": "%", "numeric-value": 47.4}
{"compound": "O=C(C1=Cc2cc3ccccc3n2Cc2cnnn21)c1ccc(O)cc1", "reading-unit": "%", "numeric-value": 49.4}
{"compound": "Nc1nc(N)c(N=Nc2ccccc2)c(-c2ccccc2)n1", "reading-unit": "%", "numeric-value": 3.4}
{"compound": "C=C1C(=O)O[C@H]2[C@H]1CC/C(COC(=O)c1cc3cc(Cl)ccc3[nH]1)=C\\CC[C@@]1(C)O[C@@H]21", "reading-unit": "%", "numeric-value": -22}
{"compound": "COC1=C(C)C(=O)N2[C@@H]1[C@H](c1ccccc1)OC21C=CC(=O)C=C1", "reading-unit": "%", "numeric-value": 32.6}
{"compound": "CNC1=C([N+](=O)[O-])C(c2ccc(OC)cc2)C(C#N)=C(c2cccs2)O1 (centres undefined)", "reading-unit": "%", "numeric-value": 106}
{"compound": "CCCCCCCCCCCCCOC(=O)c1c(C)[nH]c(/C=C2\\N=C(c3ccc[nH]3)C=C2OC)c1C", "reading-unit": "%", "numeric-value": 18}
{"compound": "CCSc1oc(C)nc1[P+](c1ccccc1)(c1ccccc1)c1ccccc1", "reading-unit": "%", "numeric-value": 56.3}
{"compound": "O=C1c2ccccc2C(=O)c2c1cc1c(c2[N+](=O)[O-])OCO1", "reading-unit": "%", "numeric-value": 6.81}
{"compound": "S=c1nc2oc(-c3ccccc3)c(-c3ccccc3)c2c(/N=C\\c2ccco2)[nH]1", "reading-unit": "%", "numeric-value": 81.9}
{"compound": "CN1CCN(CCOc2ccc(-c3cnc4c(-c5cccc(F)c5F)cnn4c3)cc2)CC1", "reading-unit": "%", "numeric-value": 103}
{"compound": "CCCCNc1nnc2n(Cc3ccccc3)c(=O)c3c4c(sc3n12)CCCC4", "reading-unit": "%", "numeric-value": 71.5}
{"compound": "C=C(C)[C@@H]1CC[C@]2(C(=O)N3CCN(C)CC3)CC[C@]3(C)[C@H](CC[C@@H]4[C@@]5(C)CC[C@H](OC(=O)c6ccccc6C(=O)O)C(C)(C)[C@@H]5CC[C@]43C)[C@@H]12", "reading-unit": "%", "numeric-value": 94.7}
{"compound": "COc1ccc(-c2nc(/C=C3\\C(=O)N(C)c4ccccc43)c3ccccn23)cc1", "reading-unit": "%", "numeric-value": 41.3}
{"compound": "CCc1ccc(CCC(=O)Nc2ncc(Cc3cc(Cl)ccc3Cl)s2)o1", "reading-unit": "%", "numeric-value": 7.65}
{"compound": "Cn1ccc(=O)nc1", "reading-unit": "%", "numeric-value": 132}
{"compound": "COc1ccc(/C=C/c2c(C(=O)/C=C/c3ccccc3)c(C)nc3ccccc23)cc1", "reading-unit": "%", "numeric-value": 38.2}

====

# Tested on: COLO 205 colon
# assay-notes: NCI-60 one-dose screen, 48 h (100 = growth as untreated, 0 = no growth, -100 = all killed)
# cond: 10 µM unless noted
Compounds without any hit were thinned out: in the full panel of roughly 83,000, 20% have a hit. Calls of active or inactive are those of the source. Rule for the calls: active = growth percent below 10; inactive = the rest.

{"compound": "Cn1c2c(c3ccc(Cl)c(Cl)c31)C(C#N)C(C)(C)NC2=O (centres undefined)", "growth": "92.2% (inactive)"}
{"compound": "COCCn1cc(-c2csc(-c3c[nH]c4ccc(Br)cc34)n2)c2cccnc21", "growth": "24.9% (inactive)"}
{"compound": "CCCCNC(=O)Oc1ccc(/C(=C(/C)Cc2ccc(OC)cc2)c2ccc(OCCN3CCCCC3)cc2)cc1", "growth": "34.9% (inactive)"}
{"compound": "CC(C)(C)n1cc(-c2ccnc(NCCNS(=O)(=O)c3ccc(O)cc3)c2)c(-c2cccc(O)c2)n1", "growth": "91.9% (inactive)"}
{"compound": "O=C(/C=C(O)/C=C/c1cccc2[nH]ccc12)/C=C/c1cccc2[nH]ccc12", "growth": "55.8% (inactive)"}
{"compound": "CCN1C(=O)N(CC)C2Nn3c(s/c(=C\\c4ccccc4Br)c3=O)=NC21 (centres undefined)", "growth": "14.4% (inactive)"}
{"compound": "O=c1c2c3c(sc2n2c(-c4cc(-c5ccccc5)no4)nnc2n1Cc1ccccc1)CCCC3", "growth": "96.4% (inactive)"}
{"compound": "O=C(CCSc1nnc2n(Cc3ccccc3)c(=O)c3c4c(sc3n12)CCCC4)N1CCN(c2ccccc2)CC1", "growth": "102% (inactive)"}
{"compound": "CC1=C(C(=O)Nc2nc(-c3ccc(Cl)cc3)cs2)[C@H](c2ccc(O)cc2)NC(=O)N1", "growth": "110% (inactive)"}
